pIC50: −log10 of the molar value.
Consider the following pIC50 data for Amine oxidase [flavin-containing] B (Homo sapiens, UniProt P27338), collected from several reports.

Compound: CC1(C(=O)N2CC(C#Cc3ccc4c(=O)c(-c5ccc(NS(C)(=O)=O)cc5)coc4c3)C2)CC1
Assay Target: Amine oxidase [flavin-containing] B (Homo sapiens, UniProt P27338)
pIC50: < 3.89
--
Compound: CN1CCC(N[C@@H]2C[C@H]2c2ccc(NC(=O)c3ccc(-c4ccccc4)cc3)cc2)CC1 (relative stereo)
Assay Target: Amine oxidase [flavin-containing] B (Homo sapiens, UniProt P27338)
pIC50: < 5.00
--
Compound: O=C(Nc1ccc([C@@H]2C[C@H]2NC2CCCCCCC2)cc1)c1ccccc1 (relative stereo)
Assay Target: Amine oxidase [flavin-containing] B (Homo sapiens, UniProt P27338)
pIC50: < 5.00

Let us examine a further case.
Requested read-out: pIC50. Entry: C[C@H](NC(=O)c1ccc(OCc2ccc(F)cc2)c(F)c1)C(N)=O
8.15

---

Collected IC50 for UniProtKB P27338 across several studies; compounds listed below.

Compound: O=C(NCc1ccc(-c2cc[nH]c(=O)c2)cc1)c1c(F)cccc1Cl
IC50: > 130 µM
--
Compound: CS(=O)(=O)Nc1ccc(-c2coc3cc(C#CC4CCOCC4)ccc3c2=O)cc1
IC50: > 130 µM
--
Compound: O=C(Nc1ccc([C@@H]2C[C@H]2NCc2cccnc2)cc1)c1ccc(-c2ccccc2)cc1 (relative stereo)
IC50: > 10 µM

Can you share its IC50? I mean this compound: CC(=O)Nc1nc(CCc2ccc(NC(=N)NN)cc2)c(Cc2ccc(S(C)(=O)=O)cc2)s1
> 10 µM

// same read-out, input: CC(COc1ccccc1)N[C@@H]1C[C@H]1c1ccc(NC(=O)c2ccc(-c3ccccc3)cc2)cc1 (relative stereo)
> 10 µM

Same again, this time with O=C(Nc1ccc([C@@H]2C[C@H]2NCC2CC2)cc1)c1cccc(-n2cnnn2)c1 (relative stereo)
> 10 µM

Moving on to the next compound: CC(C)(C)OC(=O)N1CCC(C#Cc2ccc3c(=O)c(-c4ccc(NS(C)(=O)=O)cc4)coc3c2)CC1
> 130 µM

Let us now turn to O=C(Nc1ccc([C@@H]2C[C@H]2NCC2CC2)cc1)c1ccc2cc[nH]c2c1 (relative stereo)
> 10 µM

Now try O=C(NCc1ccc(-c2[nH]c(=O)ccc2F)nc1)c1c(Cl)cccc1Cl .
> 10 µM

Entry to check: O=C(Nc1ccc([C@@H]2C[C@H]2NCc2ccccc2)cc1)c1cccc(C(F)(F)F)c1 (relative stereo)
> 10 µM
